# experiment: Plasma concentration in mouse at 5 mg/kg, ip administered as single dose after 1 hr by LC-MS/MS method
# Type: ADME, organism-based
endpoint: concentration at 1 h (nM)
The response must be a number in nM with no trailing unit.

Noted for Fc1ccc(F)c(-c2c(Cl)ncn2-c2ccc(Cl)cc2)c1F : its concentration at 1 h reads 300

Noted for Fc1cc(-n2cnc(Cl)c2-c2c(F)ccc(F)c2F)ccc1Cl : its concentration at 1 h reads 240

Noted for Fc1ccc(Br)c(F)c1-c1c(Cl)ncn1-c1ccc(Cl)cc1 : its concentration at 1 h reads 260

Noted for Fc1ccc(Cl)c(F)c1-c1c(Cl)ncn1-c1ccc(Cl)cc1 : its concentration at 1 h reads 190

Noted for Fc1cccc(F)c1-c1cnc(Cl)n1-c1ccc(Cl)cc1 : its concentration at 1 h reads 480

====

For each record, write down the corresponding log10(IC50).
# target.of.assay: Cyclooxygenase (Rattus norvegicus, UniProt P35355+Q63921)
# experiment: Inhibition of COX-mediated PGD2/PGE2 production in arachidonic acid-stimulated RBL1 cells preincubated for 2 hrs followed by A23187 induction for 15 mins by LC/MS/MS analysis
Recall that a logarithmic scale is used here: each number is log10 of IC50 in nM.

Noted for Fc1cc(-n2cnc(Cl)c2-c2c(F)ccc(F)c2F)ccc1Cl : its log10(IC50) reads 3.66

Noted for COc1ccc(-n2cnc(Cl)c2-c2c(F)cc(F)cc2F)cc1 : its log10(IC50) reads 3.38

Noted for Cc1ncn(-c2ccc(Cl)cc2)c1-c1c(F)ccc(F)c1F : its log10(IC50) reads 3.67

Noted for COc1ccc(-n2c(-c3c(F)cc(F)cc3F)cnc2Cl)cc1 : its log10(IC50) reads 3.99

Noted for Fc1ccc(F)c(-c2c(Cl)ncn2-c2ccc(Cl)cc2)c1F : its log10(IC50) reads 3.46

Noted for Fc1ccc(F)c(-c2cnc(Cl)n2-c2ccc(Cl)cc2)c1 : its log10(IC50) reads 3.34

Noted for Cc1ncn(-c2ccc(Cl)cc2)c1-c1c(F)ccc(Cl)c1F : its log10(IC50) reads 4.08

Noted for Fc1ccc(Cl)c(F)c1-c1c(Cl)ncn1-c1ccc(Cl)cc1 : its log10(IC50) reads 3.34

Noted for Fc1cccc(F)c1-c1c(Cl)ncn1-c1ccc(Cl)cc1 : its log10(IC50) reads 3.38

Noted for Cc1cc(F)c(-c2c(Cl)ncn2-c2ccc(Cl)cc2)c(F)c1 : its log10(IC50) reads 3.26

Noted for Fc1ccc(Br)c(F)c1-c1c(Cl)ncn1-c1ccc(Cl)cc1 : its log10(IC50) reads 3.81

Noted for Fc1cccc(F)c1-c1cnc(Cl)n1-c1ccc(Cl)cc1 : its log10(IC50) reads 4.18

Noted for Clc1ccc(-n2cnc(Cl)c2-c2ccccc2)cc1 : its log10(IC50) reads 3.00

====

# experiment: Change in total alpha-tubulin levels in human QBI293 cells at 1 uM after 4 hrs by ELISA relative to control
# test.settings: qbi293, 4 h
endpoint: Activity

Solved cases (6 shown):
                                smiles_repr  readout_value
0  Fc1cccc(F)c1-c1c(Cl)ncn1-c1ccc(OC(F)(F)F)cc1      Non-Toxic
1  Fc1ccc(Cl)c(F)c1-c1c(Cl)ncn1-c1ccc(Cl)cc1      Non-Toxic
2  Cc1nc(C)n(-c2ccc(Cl)cc2)c1-c1c(F)ccc(Cl)c1F      Non-Toxic
3  COc1ccc(-n2c(-c3c(F)cc(F)cc3F)cnc2Cl)cc1      Non-Toxic
4  Fc1ccc(F)c(-c2c(Cl)ncn2-c2ccc(Cl)cc2)c1F      Non-Toxic
5  Fc1ccc(F)c(-c2cnc(Cl)n2-c2ccc(Cl)cc2)c1F      Non-Toxic

Noted for COc1ccc(-c2cncn2-c2ccc(Cl)cc2)cc1 : its Activity reads Non-Toxic

Noted for Fc1cc(F)c(-c2cncn2-c2ccc(Cl)cc2)c(F)c1 : its Activity reads Non-Toxic

Noted for Fc1cc(F)c(-c2cnc(Cl)n2-c2ccc(Cl)cc2)c(F)c1 : its Activity reads Non-Toxic

Noted for Fc1ccc(F)c(-c2c(Cl)ncn2-c2ccc(OC(F)(F)F)cc2)c1F : its Activity reads Non-Toxic

Noted for COc1ccc(-n2cncc2-c2c(F)cc(F)cc2F)cc1 : its Activity reads Non-Toxic

Noted for Cc1cc(F)c(-c2c(Cl)ncn2-c2ccc(Cl)cc2)c(F)c1 : its Activity reads Non-Toxic

Noted for Clc1ccc(-n2c(Cl)nc(Cl)c2-c2ccccc2)cc1 : its Activity reads Non-Toxic

Noted for Fc1cc(Cl)ccc1-n1c(-c2c(F)cccc2F)cnc1Cl : its Activity reads Non-Toxic

Noted for Fc1cc(-n2c(-c3c(F)ccc(F)c3F)cnc2Cl)ccc1Cl : its Activity reads Non-Toxic

Noted for COc1ccc(F)c(-c2cncn2-c2ccc(Cl)cc2)c1F : its Activity reads Non-Toxic

Noted for Cc1ncn(-c2ccc(Cl)cc2)c1-c1c(F)cccc1F : its Activity reads Non-Toxic

Noted for Fc1cccc(F)c1-c1cncn1-c1ccc(OC(F)(F)F)cc1 : its Activity reads Non-Toxic

Noted for Cc1nc(Cl)n(-c2ccc(Cl)cc2)c1-c1c(F)ccc(F)c1F : its Activity reads Non-Toxic

Noted for Cc1cc(F)c(-c2cncn2-c2ccc(Cl)cc2)c(F)c1 : its Activity reads Non-Toxic

Noted for Cc1cc(F)c(-c2cnc(Cl)n2-c2ccc(Cl)cc2)c(F)c1 : its Activity reads Non-Toxic

Noted for Fc1cc(Cl)ccc1-n1cnc(Cl)c1-c1c(F)cccc1F : its Activity reads Non-Toxic

Noted for Fc1cccc(F)c1-c1cncn1-c1ccccc1 : its Activity reads Non-Toxic

====

# Species: Rattus norvegicus
# experiment: Inhibition of 5-LOX-mediated LTB4 production in arachidonic acid-stimulated RBL1 cells at 10 uM preincubated for 2 hrs followed by A23187 induction for 15 mins by LC/MS/MS analysis relative to control
Is inhibition at least 70%? Then yes. If not, no.

Query: Please indicate if the recorded inhibition for Fc1ccc(F)c(-c2cncn2-c2ccc(OC(F)(F)F)cc2)c1F meets or exceeds 70%.
Reply: no

Query: Please indicate if the recorded inhibition for Fc1cccc(F)c1-c1c(Cl)nc(Cl)n1-c1ccc(OC(F)(F)F)cc1 meets or exceeds 70%.
Reply: yes

Query: Please indicate if the recorded inhibition for Fc1cccc(F)c1-c1cncn1-c1ccccc1Cl meets or exceeds 70%.
Reply: no

Query: Please indicate if the recorded inhibition for Fc1cc(F)c(-c2cncn2-c2ccc(Cl)cc2)c(F)c1 meets or exceeds 70%.
Reply: no

Query: Please indicate if the recorded inhibition for COc1ccc(-n2c(-c3c(F)cc(F)cc3F)cnc2Cl)cc1 meets or exceeds 70%.
Reply: yes

Query: Please indicate if the recorded inhibition for COc1cc(F)c(-c2c(Cl)nc(C)n2-c2ccc(Cl)cc2)c(F)c1 meets or exceeds 70%.
Reply: yes

Query: Please indicate if the recorded inhibition for Cc1ncn(-c2ccc(Cl)cc2)c1-c1c(F)ccc(F)c1F meets or exceeds 70%.
Reply: yes

Query: Please indicate if the recorded inhibition for Fc1ccc(Br)c(F)c1-c1c(Cl)ncn1-c1ccc(Cl)cc1 meets or exceeds 70%.
Reply: yes

Query: Please indicate if the recorded inhibition for Cc1ncn(-c2ccc(Cl)cc2)c1-c1c(F)cccc1F meets or exceeds 70%.
Reply: no

Query: Please indicate if the recorded inhibition for Cc1nc(Cl)n(-c2ccc(Cl)cc2)c1-c1c(F)ccc(Cl)c1F meets or exceeds 70%.
Reply: no

Query: Please indicate if the recorded inhibition for Fc1ccc(F)c(-c2cnc(Cl)n2-c2ccc(Cl)cc2)c1 meets or exceeds 70%.
Reply: yes

Query: Please indicate if the recorded inhibition for Clc1ccc(-n2cncc2-c2ccccc2)cc1 meets or exceeds 70%.
Reply: no

Query: Please indicate if the recorded inhibition for COc1cc(F)c(-c2c(Cl)nc(Cl)n2-c2ccc(Cl)cc2)c(F)c1 meets or exceeds 70%.
Reply: no

Query: Please indicate if the recorded inhibition for Cc1nc(Cl)c(-c2c(F)ccc(F)c2F)n1-c1ccc(Cl)c(F)c1 meets or exceeds 70%.
Reply: yes

Query: Please indicate if the recorded inhibition for Fc1cc(Cl)ccc1-n1c(-c2c(F)cccc2F)cnc1Cl meets or exceeds 70%.
Reply: no

Query: Please indicate if the recorded inhibition for Fc1ccc(Cl)c(F)c1-c1cnc(Cl)n1-c1ccc(Cl)cc1 meets or exceeds 70%.
Reply: yes

Query: Please indicate if the recorded inhibition for Fc1cccc(F)c1-c1cnc(Cl)n1-c1ccc(OC(F)(F)F)cc1 meets or exceeds 70%.
Reply: no

Query: Please indicate if the recorded inhibition for Fc1cccc(F)c1-c1c(Cl)ncn1-c1ccc(OC(F)(F)F)cc1 meets or exceeds 70%.
Reply: yes

Query: Please indicate if the recorded inhibition for CC(C)Cc1ccc(C(C)C(=O)O)cc1 (centres undefined) meets or exceeds 70%.
Reply: no

Query: Please indicate if the recorded inhibition for Fc1cc(F)c(-c2c(Cl)ncn2-c2ccc(Cl)nc2)c(F)c1 meets or exceeds 70%.
Reply: no

Query: Please indicate if the recorded inhibition for Fc1cc(-n2cnc(Cl)c2-c2c(F)ccc(F)c2F)ccc1Cl meets or exceeds 70%.
Reply: no

Taken from ChEMBL document CHEMBL4014332.
